In what follows, each item is paired with its MIC for Cutibacterium avidum.
Where a name gives a salt, the structure may show the parent alone.

Example compounds with recorded MIC:
Cc1nccnc1/C=C/[C@@]1(C)C[C@@H](OC(=O)CSC2CCNCC2)[C@]2(C)[C@H](C)CC[C@]3(CCC(=O)[C@H]32)[C@@H](C)[C@@H]1O
0.015 to 0.25 µg/mL
C=C[C@]1(C)C[C@@H](OC(=O)CS[C@@H]2CC[C@@H](N)C[C@H]2O)[C@]2(C)[C@H](C)CC[C@]3(CCC(=O)[C@H]32)[C@@H](C)[C@@H]1O [Lefamulin, reference compound]
0.03 to 0.06 µg/mL
C[C@@H]1CC[C@@]23CCC(=O)[C@H]2[C@]1(C)[C@H](OC(=O)CS[C@H]1CO[C@H]2[C@@H]1OC[C@@H]2N)C[C@](C)(/C=C/c1cccnc1)[C@@H](O)[C@@H]3C [Example 1, dihydrochloride]
0.015 to 0.06 µg/mL
C[C@@H]1CC[C@@]23CCC(=O)[C@H]2[C@]1(C)[C@H](OC(=O)CS[C@H]1CO[C@H]2[C@@H]1OC[C@@H]2N)C[C@](C)(/C=C/c1cncnc1)[C@@H](O)[C@@H]3C [Example 2, dihydrochloride]
0.015 to 0.06 µg/mL

We now examine a further compound.
Form: Entry = Cc1nccnc1/C=C/[C@@]1(C)C[C@@H](OC(=O)CS[C@H]2CO[C@H]3[C@@H]2OC[C@@H]3N)[C@]2(C)[C@H](C)CC[C@]3(CCC(=O)[C@H]32)[C@@H](C)[C@@H]1O [Example 3, dihydrochloride] | System = Cutibacterium avidum | MIC = ____
0.03 to 0.25 µg/mL
